Values were extracted from ChEMBL document CHEMBL5244205.

Molecular target: Tyrosine-protein kinase BTK (Homo sapiens)
Sequence (Q06187 whole entry): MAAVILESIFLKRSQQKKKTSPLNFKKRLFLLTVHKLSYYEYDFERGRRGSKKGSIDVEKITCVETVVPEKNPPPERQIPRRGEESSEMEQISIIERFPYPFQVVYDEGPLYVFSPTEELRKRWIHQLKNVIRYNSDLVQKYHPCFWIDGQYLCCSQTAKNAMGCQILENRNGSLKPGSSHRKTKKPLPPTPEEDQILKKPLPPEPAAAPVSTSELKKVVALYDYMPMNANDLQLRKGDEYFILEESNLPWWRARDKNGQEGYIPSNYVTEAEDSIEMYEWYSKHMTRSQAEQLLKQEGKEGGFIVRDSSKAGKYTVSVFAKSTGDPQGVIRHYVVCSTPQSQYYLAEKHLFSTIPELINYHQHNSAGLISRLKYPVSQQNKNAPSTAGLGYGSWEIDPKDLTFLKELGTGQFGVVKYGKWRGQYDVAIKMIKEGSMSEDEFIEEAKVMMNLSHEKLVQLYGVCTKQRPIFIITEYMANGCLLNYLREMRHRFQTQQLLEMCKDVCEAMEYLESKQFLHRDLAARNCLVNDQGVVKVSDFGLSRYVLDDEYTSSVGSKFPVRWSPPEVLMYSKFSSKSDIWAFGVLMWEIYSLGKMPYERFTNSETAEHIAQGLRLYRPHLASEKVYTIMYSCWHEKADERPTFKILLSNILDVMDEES
Assay: Inhibition of BTK (unknown origin)
OBSERVATION_TYPE: IC50

Name the recorded IC50 of C[C@@H]1CCN(C(=O)CC#N)C[C@@H]1n1ccc2cnc3[nH]cc(C#N)c3c21 , assay system Tyrosine-protein kinase BTK (Homo sapiens).
> 1 µM

Name the recorded IC50 of C[C@@H]1CCN(C(=O)CC#N)C[C@@H]1n1ccc2cnc3[nH]ccc3c21 , assay system Tyrosine-protein kinase BTK (Homo sapiens).
> 1 µM

----------
Target: Tyrosine-protein kinase ITK/TSK (Homo sapiens, UniProt Q08881)
Sequence (Q08881 whole entry): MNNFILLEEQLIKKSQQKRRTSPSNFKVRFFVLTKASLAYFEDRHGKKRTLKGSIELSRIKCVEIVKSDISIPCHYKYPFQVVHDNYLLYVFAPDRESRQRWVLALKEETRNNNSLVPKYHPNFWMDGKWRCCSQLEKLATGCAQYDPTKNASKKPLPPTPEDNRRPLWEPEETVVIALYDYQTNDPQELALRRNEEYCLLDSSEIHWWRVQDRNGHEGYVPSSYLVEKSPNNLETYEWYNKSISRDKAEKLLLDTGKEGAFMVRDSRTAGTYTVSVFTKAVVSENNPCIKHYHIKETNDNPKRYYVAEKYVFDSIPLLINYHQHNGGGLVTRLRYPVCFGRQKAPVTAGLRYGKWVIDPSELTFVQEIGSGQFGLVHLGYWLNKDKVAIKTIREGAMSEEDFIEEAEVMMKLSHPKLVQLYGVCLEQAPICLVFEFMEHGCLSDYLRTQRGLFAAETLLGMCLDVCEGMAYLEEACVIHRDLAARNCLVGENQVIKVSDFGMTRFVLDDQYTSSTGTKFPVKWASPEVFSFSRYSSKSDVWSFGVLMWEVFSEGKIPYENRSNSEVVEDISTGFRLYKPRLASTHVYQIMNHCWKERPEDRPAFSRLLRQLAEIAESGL
OBSERVATION_TYPE: IC50

Consider the compound C[C@@H]1CCN(C(=O)CC#N)C[C@@H]1n1ccc2cnc3[nH]ccc3c21 . State its measured IC50.
> 1000 nM
